# maps each entry to its Internalization %, MDA-MB-231, 1 µg/ml, 2 h
- measured_target: T1, human Trop-2 expressed on cell surface (human, UniProt P09758 27-323)
- T1 sequence (looked up): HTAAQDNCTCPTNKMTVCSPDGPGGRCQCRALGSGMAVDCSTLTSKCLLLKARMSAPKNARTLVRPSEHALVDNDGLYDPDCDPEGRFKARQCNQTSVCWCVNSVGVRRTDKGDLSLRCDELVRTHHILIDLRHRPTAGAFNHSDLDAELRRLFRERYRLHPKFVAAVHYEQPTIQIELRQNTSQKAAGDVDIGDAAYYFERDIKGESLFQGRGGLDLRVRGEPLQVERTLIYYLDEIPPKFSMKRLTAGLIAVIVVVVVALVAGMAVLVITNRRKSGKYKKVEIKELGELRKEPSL
- test_name: cell-based or functional assay
value_type: Internalization %, MDA-MB-231, 1 µg/ml, 2 h (%)

| binder | result_units | observed |
| --- | --- | --- |
| 10A9 (antibody, V domains shown, Rabbit-derived clone; LEM construct: VH + rabbit IgG CH1 + human IgG1 CH2-CH3) VH: QSLEESGGDLVQPGASLTLTCKASGFDLNNYAMLWVRQAPGKGLEWIGCIYISGGTTYFASWATGRFAISKTSSTTVTLQMTSLTAADTATYFCARDDGTTSYYLNLWGPGTLVTVSS VL: YDMTQTPASVSAAVGGTVTIKCQASEDIYSLLAWYQQKPGQPPKLLIYGASNLESGVPSRFKGSGSGTEYTLTISDLECDDAATYYCQQAYTIGNIDNAFGGGTEVVVK | % | 40 |
| 5D4-1 (antibody, V domains shown) VH: QQLEESGGGLVKPEGSLTLTCKGSGFDFSGTYWMWWVRQAPGKGLEWIAPIYVGSGSSTYYASWAKGRFTISSTSSTAVTLQATSLTAADTATYFCARGATNNVFMNYFNLWGPGTLVTVSS VL: FEMTQTPSSVSEPVGGTVTIKCQASEDISSNLGWYQQKPGQPPKLLIYGASTLASGVPSRFKGSGSGTEFTLTISDLEPADAATYYCQTSYYIDDGVNGFGGGTEVVVK | % | 59 |
| 74F11/15F5 (antibody, human IgG1, V domains shown, LEM construct: VH + rabbit IgG CH1 + human IgG1 CH2-CH3) VH: QEQLKESGGGLVQPGGSLKLSCKASGFDFNNYGMSWVRQAPGKGLEWIAYIYPAFHNTYYANWVNGRFTISSDNAQNTVDLQLNSLTAADTATYFCARDAGSTDYNFNLWGPGTLVTVSS VL: DVVMTQTPASVEAAVGGTVTIKCQASEDIERYLAWYQQKPGQPPKLLIYEASKLPSGVSSRFSGSGYGTEFTLTISGVECADAATYYCQQALTIGYVDNPFGGGSEVVVK | % | 42 |
| 66A1 (antibody, V domains shown, Rabbit-derived clone; LEM construct: VH + rabbit IgG CH1 + human IgG1 CH2-CH3) VH: QEQLKESGGGLVQPGGSLKLSCKASGFDFNNYGVSWVRQAPGKGLEWIAYIYPAFHNTYYASWVNGRFTISSHNAQNTLYLQLNSLTAADTATYFCARDAGGTDYAYNLWGPGTLVTVSS VL: DVVMTQTPASVEAAVGGTVSINCQASEDIESYLAWYQQKPGQPPKLLIYKASTLASGVSSRFKGSGSGKQFTLTISGVECADAATYYCQQVLTIGNVDNPFGGGSEVVVK | % | 39 |
| 9D7 (antibody, V domains shown, Rabbit-derived clone; LEM construct: VH + rabbit IgG CH1 + human IgG1 CH2-CH3) VH: QSLEESGGDLVQPGASLTLTCKASGFDLNNYSILWVRQAPGKGLEWIGCIYISGGSTYYANWAKGRFAISKTSSTTVTLQMTSLTAADTATYFCARDDGTASYYLNLWGPGTLVTVSS VL: YDMTQTPASVSEPVGGTVTIKCQASEDIYKLLAWYQQKPGQPPKLLIYAASDLESGVPSRFKGRGSGTDYTLTISDLECADAATYYCQQAYTIGNIDNSFGGGTEVVVK | % | 43 |
| 5D4-2 (antibody, V domains shown) VH: QQLEESGGGLVKPEGSLTLTCKGSGFDFSGTYWMWWVRQAPGKGLEWIASIYVGSGSSTYYASWAKGRFTISSTSSTAVTLQATSLTAADTATYFCARGATNNVFMNYFNLWGPGTLVTVSS VL: FEMTQTPSSVSEPVGGTVTIKCQASEDISSNLGWYQQKPGQPPKLLIYGASTLASGVPSRFKGSGSGTEFTLTISDLEAADAATYYCQTSYYIDDGVNGFGGGTEVVVK | % | 52 |
